B1: glmS ribozyme (parent)
chain: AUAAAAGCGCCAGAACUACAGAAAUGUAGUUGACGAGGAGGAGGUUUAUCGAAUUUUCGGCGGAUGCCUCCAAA

# Variants of: B1
# experiment: self-cleavage kobs at 2500 uM GlcN6P; higher = faster cleavage; RNA array
# appliedConditions: with glucosamine-6-phosphate
Fewer inactive variants are shown than the library holds.
endpointName: self-cleavage kobs at 2500 uM GlcN6P (s⁻¹)
// note: answer is a bare numeric in s⁻¹

Please give the measured self-cleavage kobs at 2500 uM GlcN6P for this variant: AUAAAAGCGCCAGAACUACAGAAAUGUAGUUGACGAGGAGGAGGUUAAUCGAAUUUUCGGCGGAUGCCACCAAA [U47A U69A]
0.000188

Please give the measured self-cleavage kobs at 2500 uM GlcN6P for this variant: AUAAAAGCGCCAGAACUACAGAAAUGUAGUUAACGAGGAGGAGGUUAAUCGAAUUUUCGGCGGAUGCCUGCAAA [G32A U47A C70G]
4.84e-05

Please give the measured self-cleavage kobs at 2500 uM GlcN6P for this variant: AUAAAAGCGCCCGAACUACAGAAAUGUAGUUGACGAGGAGGAGGUUUAUCGAAUCUUCGGCGGAUGCCUCCAAA [A12C U55C]
0.00417

Please give the measured self-cleavage kobs at 2500 uM GlcN6P for this variant: AUAAAAGCGCUAGAACUACAGAAAUGUAGUUGACGAGGAGGAGGUUUAUCGAAUCUUCGGCGGAUGCCUCCAAA [C11U U55C]
0.000776

Please give the measured self-cleavage kobs at 2500 uM GlcN6P for this variant: AUAAAAGCGCCAGGAUUACAGAAAUGUAGUUGACGAGGAGGAGGUUUAUCGAAUUUUCGGCGGAUGCCUCCAAA [A14G C16U]
0.00522

Please give the measured self-cleavage kobs at 2500 uM GlcN6P for this variant: AUAAAAGAGCCAGACCUACAGAAAUGUAGUUGAAGAGAAGGAGGUUUAUCGAAUUUUCGGCGGAUGCGUCCAAA [C8A A15C C34A G38A C68G]
0.00055

Please give the measured self-cleavage kobs at 2500 uM GlcN6P for this variant: AUAAAAGCGCCCGAACUACAGAAAUGUAGUUGACGAGGAAGAGGUUUAUCGAAUUUUCGGCGGAUGCCUCCAAA [A12C G40A]
0.00149

Please give the measured self-cleavage kobs at 2500 uM GlcN6P for this variant: AUAAAAGCGCCAGCACUACAGAAAUGUAUUUGACGAGGAGGAGGUUUAUUGGAUUUUGGGCGGAUGCCUCCAAA [A14C G29U C50U A52G C58G]
7.98e-05

Please give the measured self-cleavage kobs at 2500 uM GlcN6P for this variant: AUAAAAGCGCCAGAACUACAGAAAUGUAGUUGCCGAGGAGGAGGUUAAUCGAAUUUUCGGCGGAUGCCUCCAAA [A33C U47A]
0.000136

Please give the measured self-cleavage kobs at 2500 uM GlcN6P for this variant: AUAAAAGCGCCAGAACUACAGAAAUGUAGUUGACGAGGAGGAGGAUUAUCGAAUUUUCGGCGGAUUCCUCCAAA [U45A G66U]
0.00104

Please give the measured self-cleavage kobs at 2500 uM GlcN6P for this variant: AUAAAAGCGCCAGAACUACAGAAAUGUAGUUGACGAGGAGGAGGUUUAUCGAAUUUUAGGCGGAUGCCUCAAAA [C58A C71A]
7.33e-05

Please give the measured self-cleavage kobs at 2500 uM GlcN6P for this variant: AUAAAAGCGCCAGAACUACAGAAAUGUAGUUGACGAGGAGGAGGUUUAUCGAAUUCUCGGCGGAUACCUCCAAA [U56C G66A]
0.00117

Please give the measured self-cleavage kobs at 2500 uM GlcN6P for this variant: AUAAAAGCGCCAGAACUACAGAAAUGUAGUAGACGAGGAGGAGGUUUAUCGAAUUUUGGGCGGAUGCCUCCAAA [U31A C58G]
3.87e-05

Please give the measured self-cleavage kobs at 2500 uM GlcN6P for this variant: AUAAAAGCGCCAGAACUACAGAAAUGUAGUUGACGAGGAGGAGGUUUAUAGAAUUUUCGGCGGAUGCCUCCAAA [C50A]
2.31e-05

Please give the measured self-cleavage kobs at 2500 uM GlcN6P for this variant: AUAAAAGCGCCAGAGCUACAGAAAUGUAGUUCACGAGGAGGAGGUUUAUCGAAUUUUCGGCGGAUGCCUCCAAA [A15G G32C]
6.16e-05

Please give the measured self-cleavage kobs at 2500 uM GlcN6P for this variant: AUAAAAGCGCAAGACCUACAGAAAUGUAGUUGACGAGGAGGAGGUUUAUGGAAUUUUCGGCGGAUGCCUCCAAA [C11A A15C C50G]
7.75e-05

Please give the measured self-cleavage kobs at 2500 uM GlcN6P for this variant: AUAAAAGCGCCCGAACUACAGAAAUGUAGUUAACGAGGAGGAGGUUUAUCGAAGUUUCGGCGGAUGCCUCCAAA [A12C G32A U54G]
3.03e-05

Please give the measured self-cleavage kobs at 2500 uM GlcN6P for this variant: AUAAAAGCGCCAGAACUACAGAAAUGUAGUUGACGAGGAGGAGGUUUAUCGAAUUUUCGGCGGAUUCGUCCAAA [G66U C68G]
6.89e-05

Please give the measured self-cleavage kobs at 2500 uM GlcN6P for this variant: AUAAAAGCGCCAGAACUACAGAAAUGUACUUGACGAGGGGGAGGUAUAUCGAAUUUUCGGCGGAGGCCUCCAAA [G29C A39G U46A U65G]
0.000622

Please give the measured self-cleavage kobs at 2500 uM GlcN6P for this variant: AUAAAAGCGCCAGAACUACAGAAAUGUAGUUCACGAGGAGGAGGUUUAUCGAAUUUUCGGCGGAUGCCUGGAAA [G32C C70G C71G]
7.37e-05

Please give the measured self-cleavage kobs at 2500 uM GlcN6P for this variant: AUAAAAGCGCCACAACUACAGAAAUGUAGCUGACGAGGAGGAGGUUUAUCGAAUUUUCGGCGGAUGCCUCGAAA [G13C U30C C71G]
4.16e-05

Please give the measured self-cleavage kobs at 2500 uM GlcN6P for this variant: AUAAAAGCGCCAGAAGUACAGAAAUGUAGGUGACGAGGUGGAGGUUUAUCGAAUUUUCGGCGGAUGCCUCCAAA [C16G U30G A39U]
4.31e-05

Please give the measured self-cleavage kobs at 2500 uM GlcN6P for this variant: AUAAAAGCGCCAGAACUACAGAAAUGUAGUUGACGAGGGGGAGGUUUAUCGAAUUUUCGGCGGAUGGCUCCAAA [A39G C67G]
0.00535

Please give the measured self-cleavage kobs at 2500 uM GlcN6P for this variant: AUAAAAGCGCCCGAACUACAGAAAUGUAGUUGACGAGGAGGAGGUUUAUCGAAUUUCCGGCGGAUGCCUCCAAA [A12C U57C]
9.32e-05

Please give the measured self-cleavage kobs at 2500 uM GlcN6P for this variant: AUAAAAGCGCCAGUACUACAGAAAUGUAUUUGACGAGGAGGAGGUUUAUCGAAUUGUCGGCGGAUGCCUCCAAA [A14U G29U U56G]
0.000206

Please give the measured self-cleavage kobs at 2500 uM GlcN6P for this variant: AUAAAAGCGCCAGAACUACAGAAAUGUAGUUGACGAGGAGGAGGUUUAUCGAAUUUUCGGCGGAACCCUCCAAA [U65A G66C]
0.000267

Please give the measured self-cleavage kobs at 2500 uM GlcN6P for this variant: AUAAAAGCGCCAGAACUACAGAAAUGUAGUUGACGAGGAGGAGGUUUAUCGACUGUUCGGCGGAUACCUCCAAA [A53C U55G G66A]
0.00165

Please give the measured self-cleavage kobs at 2500 uM GlcN6P for this variant: AUAAAAGCGCCAGAACUACAGAAAUGUAGUUAACGAGGAGGAGGUUUAUCGAAUUUCCGGCGGAUGCCUCCAAA [G32A U57C]
5.22e-05

Please give the measured self-cleavage kobs at 2500 uM GlcN6P for this variant: AUAAAAGCGCCAGAACUACAGAAAUGUAGUUGACGUGGAGGAGGUUUAUCGAGUUUUUGGCGGAUGGCUACAAA [A36U A53G C58U C67G C70A]
0.00115

Please give the measured self-cleavage kobs at 2500 uM GlcN6P for this variant: AUAAAAGCGCCAGAACUAAAGAAAUGUAGUUGACGAGGAGGAGGUUUAUCGAAUUUUCGGCGGAUGCCUCCAAA [C19A]
0.011

Please give the measured self-cleavage kobs at 2500 uM GlcN6P for this variant: AUAAAAGCGCCAGAACUACAGAAAUGUAGUUGACGAGGAGGAGGUUCAUCGAAAUUUCGGCGGAUGCCUCCAAA [U47C U54A]
0.00275

Please give the measured self-cleavage kobs at 2500 uM GlcN6P for this variant: AUAAAAGCGCCAGAACUACAGAAAUGUAGUUGACGAGGAGGAGGUUUAUCGAAUUUUCGGCGGAUGCCUUCAAA [C70U]
0.0161

Please give the measured self-cleavage kobs at 2500 uM GlcN6P for this variant: AUAAAAGCGCCAGAACUACAGAAAUGUAGUUGACGAGGAGGAGGUUUAUCGAAAUUUCGGCGGAUGGCUCCAAA [U54A C67G]
0.000126

Please give the measured self-cleavage kobs at 2500 uM GlcN6P for this variant: AUAAAAGCGGAAGAAAUACAGAAAUGUAGUUGACGAGGAGGAGGUUUAUCGAAUUUUGGGCGGAUGCCUCGAAA [C10G C11A C16A C58G C71G]
0.000241

Please give the measured self-cleavage kobs at 2500 uM GlcN6P for this variant: AUAAAAGCGCCAGAACUACAGAAAUGUAGUUGACGAAGAGGAGGUUUAUCGAUUUUUCGGCGGAUGCCUCUAAA [G37A A53U C71U]
0.000695

Please give the measured self-cleavage kobs at 2500 uM GlcN6P for this variant: AUAAAAGCGCCAGAAUUACAGAAAUGUAGUUGACGAGGAGGAGGUUUAUCGAAUUUUCGGCGGGUGCCUCCAAA [C16U A64G]
0.0111

Please give the measured self-cleavage kobs at 2500 uM GlcN6P for this variant: AUAAAAGCGCCAGAACUACAGAAAUGUAGUUGACGAGGAUGAGGUAUAUCGAAUUUUCGGCGGAUGCCUCCAAA [G40U U46A]
0.00028

Please give the measured self-cleavage kobs at 2500 uM GlcN6P for this variant: AUAAAAGCGCCAGAACUACAGAAAUGUAGUUGACGAGGAGGAGGUUCAUCGAAUUAUCGGCGGGUGCCUCCAAA [U47C U56A A64G]
0.000616

Please give the measured self-cleavage kobs at 2500 uM GlcN6P for this variant: AUAAAAGCGCCAGAACUACAGAAAUGUAGUUGACGAGGAGGAGGUUUAUCGUUUUUUCGGCGGAUGCCUCCAAA [A52U A53U]
8.03e-05

Please give the measured self-cleavage kobs at 2500 uM GlcN6P for this variant: AUAAAAGCGCCAGAACUACAGAAAUGUAGUUGACGAGGAGGAGUUUUAUCGAAUUGUCGGCGGAUGCCUCCAAA [G44U U56G]
6.96e-05

Please give the measured self-cleavage kobs at 2500 uM GlcN6P for this variant: AUAAAGGCGCCAGAACUACAGAAAUGUAGUUGACGAGGAGGAGGUUUAUGGAAUUUUCGGCGGAUGCUUCCAAA [A6G C50G C68U]
0.000173

Please give the measured self-cleavage kobs at 2500 uM GlcN6P for this variant: AUAAAAGCGCCAGAACUACAGAAAUGUAAUUGACGAGGAGGAGGUUUAUCGAAUUUUCGGCGGAUGGCUCCAAA [G29A C67G]
8.59e-05

Please give the measured self-cleavage kobs at 2500 uM GlcN6P for this variant: AUAAAAGCGCCAGAACUACAGAAAUGUAGUCGACGAGGAGGGGGUUUAUCGAAUUUUCGGCGGAUACCUCCAAA [U31C A42G G66A]
0.00117

Please give the measured self-cleavage kobs at 2500 uM GlcN6P for this variant: AUAAAAGCGCCCGAACUACAGAAAUGUAGUUGACGAGGAGGAGGUUUAUCGAAUUUUCGGCGGAUGCCGCCAAA [A12C U69G]
7.6e-05

Please give the measured self-cleavage kobs at 2500 uM GlcN6P for this variant: AUAAAAGCGCCAGAACUACAGAAAUGUAGUUGACGAGGACGAGGUUUAUCGAAUUUUCGGCGGAUGCCUCUAAA [G40C C71U]
0.00328

Please give the measured self-cleavage kobs at 2500 uM GlcN6P for this variant: AUAAAAGCGCCAAAACUACAGAAAUGUAGUUGACGAGGAGGAGGUUUAUCGAAUUAUCGGCGGGUGCCUCCAAA [G13A U56A A64G]
0.000158

Please give the measured self-cleavage kobs at 2500 uM GlcN6P for this variant: AUAAAAGCGCCAUAACUACAGAAAUGUAGUUGACGAGGAGGAGGUUUAUCGAAUUGUCGGCGGAUGCCUCCAAA [G13U U56G]
0.000372

Please give the measured self-cleavage kobs at 2500 uM GlcN6P for this variant: AUAAAAGCGCGAGAACUACAGAAAUGUAGUUGACGAGGAGGAGGUUAAUGGAAUUUUCGGCGGAUGCCUGCAAA [C11G U47A C50G C70G]
0.000352
